# target_desc: GalNAc(b1-4)GlcNAc
# experiment_description: glycan array binding signal (z-score within array); higher = stronger binding
# measurement_conditions: glycan notation: IUPAC condensed, linker removed
The full list was thinned out, with the strongest signals kept by preference.
readout_kind: glycan array binding signal (z-score)
Response field accepts a number only; no unit should be typed.

Please give measured glycan array binding signal (z-score) of the following entry: Clec12b (Mus musculus), Q149M0 (protein) MSDEVTYATLMLQDSARVRGNQDGNNLRKEGHPAQSSLWRGAALSLMTLCLVLVTGLVTLATMFLQVSNDINSDSEKLSQLQKSIHPQQDNLSESLNSSRKSLTEESLQSQISALLERQEQMATKLCKEFLIHASDHKCNPCPKTWQWYGNSCYYFSINEEKSWSDSRKDCIDKNATLVKIDSTEERDLLQSQLSLTFSFFWLGLSWNSSGRNWLWEDGSFPPPTLFSDKELASFNGSRDCAYFERGNIYASRCSAEIPWICEKTASLVKTEDLD
0.301

Please give measured glycan array binding signal (z-score) of the following entry: PMA (Polygonatum multiflorum) (protein) LLTTTLFVFISSTRSLASTNVLYSDVGNAILNAKESLIYGDYRLDMQSDCNLVLYNKAAPYWASGTRWSWGGNCHLNLQSNGELVMYAYLGRTRIAIWRSGIISATGSYALVLKYDGALHVHGPSLWSTNATGPTTPTTASWSIDSTLWSGDVATIGPTIANGDYKLELLDTCNLTLSNTKTGQVLWYTNTTDWVHDCYVNIEGNGELKIKYLGGATLWSNKVGAGYTNNYVLGLRPDGKLDTYNAPIWSPTIGPGVHVAPAVYNASSNAVAAEGNGEKIAMVTGRAKNST
-0.246
